Target: T1, human ferroportin (SLC40A1) fused in frame with GFP, stably expressed in HEK293 cells (human, UniProt Q9NP59 1-571)
T1 sequence (looked up): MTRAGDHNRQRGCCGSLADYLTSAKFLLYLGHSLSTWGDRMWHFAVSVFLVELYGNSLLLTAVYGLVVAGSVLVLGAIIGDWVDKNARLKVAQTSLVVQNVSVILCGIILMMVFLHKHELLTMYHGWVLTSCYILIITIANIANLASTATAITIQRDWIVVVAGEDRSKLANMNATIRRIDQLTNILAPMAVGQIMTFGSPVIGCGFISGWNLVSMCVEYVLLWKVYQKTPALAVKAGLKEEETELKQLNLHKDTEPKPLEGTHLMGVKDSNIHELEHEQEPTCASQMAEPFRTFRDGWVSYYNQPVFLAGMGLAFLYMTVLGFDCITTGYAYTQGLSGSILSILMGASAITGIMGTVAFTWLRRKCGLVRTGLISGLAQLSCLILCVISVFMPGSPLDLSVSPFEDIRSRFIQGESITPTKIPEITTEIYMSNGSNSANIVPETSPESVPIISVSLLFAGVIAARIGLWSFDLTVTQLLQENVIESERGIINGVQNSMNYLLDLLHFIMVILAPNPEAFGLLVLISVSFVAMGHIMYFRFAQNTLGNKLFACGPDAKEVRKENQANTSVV
Experiment: cell-based or functional assay
* marks the point of attachment. Isovaleryl = CC(C)CC(=O)*
MEASURED PARAMETER: % Activity At 1 uM (%)
Number in %, nothing else.

% Activity At 1 uM lookup needed for Isovaleryl-DTHFPCIKF-NH2 (SMILES CC[C@H](C)[C@H](NC(=O)[C@H](CS)NC(=O)[C@@H]1CCCN1C(=O)[C@H](Cc1ccccc1)NC(=O)[C@H](Cc1c[nH]cn1)NC(=O)[C@@H](NC(=O)[C@H](CC(=O)O)NC(=O)CC(C)C)[C@@H](C)O)C(=O)N[C@@H](CCCCN)C(=O)N[C@@H](Cc1ccccc1)C(N)=O) [Compound 291] , thanks. 100

% Activity At 1 uM lookup needed for Isovaleryl-DTHFPCIIF-NH2 (also: homodimer via disulfide between Cys6 of each monomer) [Compound 325] , thanks. 100

% Activity At 1 uM lookup needed for Isovaleryl-DTHFPCIIF-NH2 (SMILES CC[C@H](C)[C@H](NC(=O)[C@H](CS)NC(=O)[C@@H]1CCCN1C(=O)[C@H](Cc1ccccc1)NC(=O)[C@H](Cc1c[nH]cn1)NC(=O)[C@@H](NC(=O)[C@H](CC(=O)O)NC(=O)CC(C)C)[C@@H](C)O)C(=O)N[C@H](C(=O)N[C@@H](Cc1ccccc1)C(N)=O)[C@@H](C)CC) [Compound 288] , thanks. 100

% Activity At 1 uM lookup needed for Isovaleryl-DTHFPCIKF-NH2 (also: homodimer via disulfide between Cys6 of each monomer) [Compound 326] , thanks. 100

% Activity At 1 uM lookup needed for H-DTHFPCIEK-NH2 [Compound 310] , thanks. 0

% Activity At 1 uM lookup needed for H-DTHFPCIEK-NH2 (also: homodimer via disulfide between Cys6 of each monomer) [Compound 323] , thanks. 0
